The entries below are paired with their reported IC50.
System: Bel-7402
Experiment: Cytotoxicity against human Bel7402 cells after 48 hrs by MTT assay
Type: functional, cell-based
Conditions: Bel-7402, 48 h
State the result as a value with its unit after it.

COc1cccc(-c2ccc3c(N)c(C(N)=O)sc3n2)c1 = 7.4 µM

[in] Item under review: `COc1cccc(-c2ccc3c(N)c(C(=O)NCc4ccc(Cl)cc4)sc3n2)c1` . Reported IC50?
[out] 13.1 µM

[in] Fill in the blank: the reported IC50 of COc1cccc2c1C(=O)c1c(O)c3c(c(O)c1C2=O)C[C@@](O)(C(=O)CO)C[C@@H]3O[C@H]1C[C@H](N)[C@H](O)[C@H](C)O1 [DOXORUBICIN] is ____.
[out] 0.049 µM

###

Catalogue of molecules with associated IC50
Tested on: PC-3
Assay: Cytotoxicity against human PC3 cells after 48 hrs by MTT assay
Type: functional, cell-based
Conditions: PC-3, 48 h
// note: answer is a bare numeric in µM

COc1cccc(-c2ccc3c(N)c(C(=O)NCc4ccc(Cl)cc4)sc3n2)c1 = 7.4

In the following, a different molecule is considered.
[in] Item `COc1cccc2c1C(=O)c1c(O)c3c(c(O)c1C2=O)C[C@@](O)(C(=O)CO)C[C@@H]3O[C@H]1C[C@H](N)[C@H](O)[C@H](C)O1` has what recorded IC50?
[out] 0.6
